# credit: paper PMC5540273

# Test system: MAK
# condition_set: concentration: 1 μM, replicates: in singlicate; n = 1;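 further: KINOMEscan kinase panel screen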
So I've got a bunch of compounds here, and I need their %Inh values.
Answer with the value and then the unit.

For each of the compounds below, state %Inh.
1. CN(C1=C(c2ccccc2)C(=O)NC1=O)c1ccccc1
2. COc1ccc(COc2cc(-n3cnc4ccccc43)sc2C(N)=O)cc1

Reply:
1. 20%
2. 0%

* * *

# Tested on: CASK
# condition_set: concentration: 1 μM, replicates: in singlicate; n = 1
measured_property: %Inh (%)
Answers are plain numbers, in %.

For orientation, consider the following solved cases.
compound | %Inh [%]
Cc1nnc(-c2ccc3occ(-c4ccc(C(C)O)cc4)c3c2)o1 (stereo not drawn) | 4
COCCNC(=O)c1ccc(-c2cc(C(=O)NC3CC3)cc(F)c2C)cc1 | 16
CCn1cnc2c(N)ncnc21 | 31
O=C(NCCNc1ccnc(Nc2ccc(F)cc2)n1)Nc1ccccc1F | 1
NS(=O)(=O)CCc1cccc(Nc2nccc(-c3c(-c4cccc(NC(=O)c5c(F)cccc5F)c4)nn4ccccc34)n2)c1 | 7

For each of the compounds below, state %Inh.
1. COc1cc2c(cc1OCCN1CCN(C)CC1)ncc1c3ccc(C#N)cc3[nH]c21
2. CCCCCc1nc2c(N)ncnc2n1CCCCC

Reply:
[8, 25]

For each of the compounds below, state %Inh.
1. COc1ccc(Nc2nccc(N3CCC(NC(=O)Nc4cc(C)ccc4C)C3)n2)cc1 (stereo not drawn)
2. Cc1c(Cn2c(C)nn3c(=O)cc(N4CCOC(C)C4)nc23)cccc1C(F)(F)F (stereo not drawn)

Reply:
1. 3
2. 0
